Hi there, I'd appreciate the recorded EC50 for every entry that follows.
System: HCMV
assay.procedure: HCMV single-step growth curve / virus titer analysis (MOI=3)
Assay type: cell-based, Human cytomegalovirus (HCMV)
cond: Human betaherpesvirus 5; MOI=3; harvested at 96 hpi (FIG. 9)
Method: Infections were done at an MOI of 0.05 for multi-step growth curves and MOI 3 for single-step growth curves. Infections were done on NHDFs unless otherwise noted. Virus was incubated with cells for 2 hours before addition of fresh media. […] For MCMV growth curve analysis, samples were titrated on NIH 3T3 cells and titers were calculated using the 50% tissue culture infective dose method. […] The number and size of foci were quantified using NIS Elements software. […]

Cc1nc(-c2ccc(C3N(C)c4ccc(F)cc4C(=O)N3c3ccccc3)s2)cs1 (centres unmarked) [Retro94F] : ~20 nM

Consider Cc1nc(-c2ccc(C3N(C)c4ccc([N+](=O)[O-])cc4C(=O)N3c3ccccc3)s2)cs1 (centres unmarked) [DABL-NM] . Its measured EC50 is ~20 nM
